Cmax values, listed per item
assay: Blood levels and half-life after oral administration in mice; assay type: in vivo; conditions: mouse, 50 mg/kg

Below, 5 compounds whose answers are already recorded.
C[C@@H](O)[C@H]1C(=O)N2C(C(=O)O)=C(SCSc3ccc(C(=O)NN)cc3)[C@H](C)[C@H]12: < 1000 ng/mL
C[C@@H](O)[C@H]1C(=O)N2C(C(=O)O)=C(SCSc3ccc(Cl)c(Cl)c3)[C@H](C)[C@H]12: 33000 ng/mL
Cc1nnc(SCSC2=C(C(=O)O)N3C(=O)[C@H]([C@@H](C)O)[C@H]3[C@H]2C)o1: 20000 ng/mL
CSCSC1=C(C(=O)O)N2C(=O)[C@H]([C@@H](C)O)[C@H]2[C@H]1C: 27000 ng/mL
Cc1nnc(SCSC2=C(C(=O)O)N3C(=O)[C@H]([C@@H](C)O)[C@H]3[C@H]2C)s1: 12000 ng/mL

Req: Give Cmax for the following compound: `C[C@@H](O)[C@H]1C(=O)N2C(C(=O)O)=C(SCSc3ccc(Cl)cc3)[C@H](C)[C@H]12`
Resp: 40000 ng/mL

---

Experiment: Blood levels and half-life after oral administration in mice
Assay type: in vivo
Details: mouse, 50 mg/kg
Procedure: In order to illustrate the potent antibacterial activity and significant oral bioavailability of the carbapenems of the present invention, Tables I, II and III show data for in vitro activities (MIC), oral in vivo activities (PD50) and blood levels after oral administration of the representative drugs (Cmax, t1/2 and AUC), respectively. Blood levels and the half-life of selected compounds of the present invention after oral administration at 50 mg/kg in mice is shown in Table III.
half-life values, listed per item
Please give a number only; it is taken to be in min.

CSCSC1=C(C(=O)O)N2C(=O)[C@H]([C@@H](C)O)[C@H]2[C@H]1C: 25
Cc1nnc(SCSC2=C(C(=O)O)N3C(=O)[C@H]([C@@H](C)O)[C@H]3[C@H]2C)o1: 14
C[C@@H](O)[C@H]1C(=O)N2C(C(=O)O)=C(SCSc3ccc(Cl)cc3)[C@H](C)[C@H]12: 33
C[C@@H](O)[C@H]1C(=O)N2C(C(=O)O)=C(SCSc3ccc(Cl)c(Cl)c3)[C@H](C)[C@H]12: 25

Now for the compound whose half-life we want.
Req: Give half-life for the following compound: `Cc1nnc(SCSC2=C(C(=O)O)N3C(=O)[C@H]([C@@H](C)O)[C@H]3[C@H]2C)s1`
Resp: 24

---

assay: Half-life (T1/2) in solution at stated pH (chemical stability); type: physicochemical; settings: pH 2, 37° C.
Recorded Metric: half-life (min)
Please give a number only; it is taken to be in min.

Req: Give half-life for the following molecule: CSC(C)SC1=C(C(=O)O)N2C(=O)[C@H]([C@@H](C)O)[C@H]2[C@H]1C (single isomer, unassigned)
Resp: 20

---

half-life values, listed per item
experiment: Half-life (T1/2) in solution at stated pH (chemical stability); type: physicochemical; conditions: pH 7.4
Please give a number only; it is taken to be in h.

Below, 2 molecules whose answers are already recorded.
CSCSC1=C(C(=O)O)N2C(=O)[C@H]([C@@H](C)O)[C@H]2[C@H]1C: 75
C[C@@H](O)[C@H]1C(=O)N2C(C(=O)O)=C(SCSc3ccccc3)[C@H](C)[C@H]12: 100

Req: Give half-life for the following molecule: C[C@@H](O)[C@H]1C(=O)N2C(C(=O)O)=C(SC[S+](C)[O-])[C@H](C)[C@H]12 (stereo partly drawn)
Resp: 46

Req: Give half-life for the following molecule: `C[C@@H](O)[C@H]1C(=O)N2C(C(=O)O)=C(SCSc3ccc(Cl)cc3)C[C@H]12`
Resp: 26

Req: Give half-life for the following molecule: `C[C@@H](O)[C@H]1C(=O)N2C(C(=O)O)=C(SCSc3ccc(Cl)cc3)[C@H](C)[C@H]12`
Resp: 97

Req: Give half-life for the following molecule: `C[C@@H](O)[C@H]1C(=O)N2C(C(=O)O)=C(SCSc3ccccn3)[C@H](C)[C@H]12`
Resp: 79
